Numbers sourced from patent US8008547B2.

What Km was measured for each of the following?
EXPERIMENT_DESCRIPTION: Standard protocol for determination of kcat and KM (continuous spectrophotometric assay, Acetyl CoA hydrolysis at 235 nm)
Assay type: biochemical
PARTICULARS: purified protein; about 23° C.; pH 6.8; 0.2 mM acetyl CoA; glyphosate 0.125 to 10 mM
Numbers only, in µM.

Here is how some molecules turned out for Km.
MOLECULE	DATA_VALUE
SEQ ID NO: 405: GAT polypeptide (protein, 6_4A10, GAT polypeptide) MIEVKPINAEDTYEIRHRILRPNQPLEACMYETDLLGGTFHLGGYYRGKLISIASFHQAEHPELEGQKQYQLRGMATLEGYREQKAGSTLIRHAEELLRKKGADLLWCNARTSASGYYKKLGFSEQGEVYDIPPVGPHILMYKKLT	1100
SEQ ID NO: 430: GAT polypeptide (protein, 9_23A10, GAT polypeptide) MIEVKPINAEDTYEIRHRILRPNQPLEACKYETDLLGGTLHLGGYYRGKLVSIASFHQAEHPELEGQKQYQLRGMATLEGYRGQKAGSTLIRHAEELLRKKGADLLWCNARTSASGYYKKLGFSEQGGVYDIPPVGPHILMYKKLT	1000
SEQ ID NO: 335: GAT polypeptide (protein, 15_4F11, GAT polypeptide) MIEVKPINAEDTYKIRHRILRPNQPLEACMYETDLLGGTFHLGGYYRGKLVSIASFNQAEHPELEGQKQYQLRGMATLEGYREQKAGSTLIRHAEALLRKKGADLLWCNARTSASGYYKKLGFSEQGEVYDIPPTGPHILMYKKLT	900
SEQ ID NO: 273: GAT polypeptide (protein, 10_18G9, GAT polypeptide) MIEVKPINAEDTYEIRHRILRPNQPLEACKYETDLLGGTFHLGGYYRGKLVSIASFHQAEHSELEGQKQYQLRGMATLEEYREQKAGSTLIRHAEELLRKKGADLLWCNARTSASGYYKKLGFSEQGGVYDIPPVGPHILMYKKLT	1200
SEQ ID NO: 467: GAT polypeptide (protein, 1_1H2, GAT polypeptide) MIEVKPINAEDTYELRHRILRPNQPLEACMYESDLLRGSFHLGGFYRGKLISIASFHQAEHSELEGQKQYQLRGMATLEGFREQKAGSSLIRHAEEILRKRGADLLWCNARTTAAGYYKKLGFSEQGEIFDTPPVGPHILMYKRIT	440

Next item in the queue.
Km lookup needed for SEQ ID NO: 266: GAT polypeptide (protein, 14_2C1, GAT polypeptide) MIEVKPINAEDTYEIRHRILRPNQPLEACKYETDLLRGAFHLGGYYRGKLVSIASFHQAEHPELEGQKQYQLRGMATLEGYREQKAGSTLIRHAEELLRKKGADLLWCNARTSASGYYKKLGFSEQGEVYDTPPTGPHILMYKKLT , thanks.
3100
